- Method: qHTS for induction of synthetic lethality in tumor cells producing 2HG: qHTS for the HT-1080-NT fibrosarcoma cell line;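 also: NT is the 2HG producing partner of a matched IDH1 knockdown line; nearly all actives have a fitted effect of over 55% in size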
- Stated conditions: HT-1080-NT fibrosarcoma viability, CellTiter-Glo ATP luminescence, 48 h; series mostly up to 46.1 µM
In all, about 360,000 compounds went through this assay and about 6,000 (1.7%) were called active. Another 8% or so got no clear call; they are omitted. Calls follow the shape of the dose curve; as a rule, active = well fitted cell-killing curve with a large enough effect; inconclusive = small, poorly fitted or top-dose-only effect, or effect the other way; inactive = flat fitted curve, though single readings scatter. This excerpt belongs to a sample that is enriched for actives.
Classes used: yes = active, no = inactive

# Compound, Cat
measured = [
    ("O=C(CCCN1CCc2[nH]c3ccc(F)cc3c2C1)c1ccc(F)cc1", "yes"),
    ("CC(=O)Nc1ccc(Nc2c3ccccc3nc3ccccc23)cc1", "yes"),
    ("COc1cccc(CN2CCC(C(=O)NC(c3ccc4c(c3)OCO4)c3ccccn3)CC2)c1 (stereo not given)", "no"),
    ("CC(=O)Nc1ccc(S(=O)(=O)N(C)c2nc3ccccc3nc2Cl)cc1", "no"),
    ("C[C@@H]1Cn2cnc(C(=O)Nc3ccc(CNC(=O)OC(C)(C)C)cc3)c2C(=O)N1", "no"),
    ("Clc1cc(-c2ccc(/C=N/n3cnnc3)o2)ccc1Br", "no"),
    ("CC(C)c1nccn1S(=O)(=O)c1cc([N+](=O)[O-])ccc1Cl", "no"),
    ("Cc1ccc2nc(/C(C#N)=C\\c3ccc(OC(=O)c4cccs4)cc3)[nH]c2c1", "yes"),
    ("CCc1nc(C)cn1S(=O)(=O)c1cc([N+](=O)[O-])ccc1Cl", "yes"),
    ("CCc1nc(C)cn1S(=O)(=O)c1cc(OC)c(C)cc1C", "no"),
]

* * *

- Method: qHTS for induction of synthetic lethality in tumor cells producing 2HG: qHTS for the HT-1080-NT fibrosarcoma cell line;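 also: NT is the 2HG producing partner of a matched IDH1 knockdown line; nearly all actives have a fitted effect of over 55% in size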
- Stated conditions: HT-1080-NT fibrosarcoma viability, CellTiter-Glo ATP luminescence, 48 h; series mostly up to 46.1 µM
Hit rate of the full screen: of about 360,000 compounds, about 6,000 (1.7%) were called active. Not shown: some 8% with an inconclusive outcome. Calls come from the whole dose curve; as a rule, active = well fitted cell-killing curve with a large enough effect; inconclusive = small, poorly fitted or top-dose-only effect, or effect the other way; inactive = flat fitted curve, though single readings scatter. Many of the other results were omitted from the sample, so actives are more common in it than they were.
Outcomes: Y (active), N (inactive)

# Compound, Cat
records = [
    ("CC(NC(=O)c1ccc(N2CCNCC2)c([N+](=O)[O-])c1)C12CC3CC(CC(C3)C1)C2 (stereo not given)", "Y"),
    ("COc1ccc(C(=O)N/N=C2\\CCS(=O)(=O)c3ccc(F)cc32)cc1OC", "Y"),
    ("O=C(NCc1ccccc1)C1CNCC(C(=O)NCc2ccccc2)C1 (stereo not given)", "N"),
    ("CCCCCC(O)c1cccc(OCc2ccc3ccccc3n2)c1 (stereo not given)", "Y"),
    ("COC(=O)C1=CN(Cc2ccc(OC)c(OC)c2)C=C(C(=O)OC)C1c1cccs1", "N"),
    ("CC1CCCC(C)N1C(=O)COC(=O)c1ccccc1C(=O)c1ccccc1 (stereo not given)", "N"),
    ("C[C@@H]1CN([C@@H](C)CO)C(=O)c2cc(Br)cnc2O[C@@H]1CN(C)C(=O)C1CCCCC1", "N"),
    ("CN1OC[C@@H]2CN(C(=O)c3ccc(-c4ccccc4)cc3)[C@H](c3ccc(-c4cccc(F)c4)cc3)C[C@@H]21", "N"),
    ("O=C(NC1C2CC3CC(C2)CC1C3)c1ccc(N2CCNCC2)c([N+](=O)[O-])c1 (stereo not given)", "N"),
    ("O=C(Nc1cccc(C(F)(F)F)c1)c1ccc(N2CCNCC2)c([N+](=O)[O-])c1", "Y"),
    ("CCS(=O)(=O)N1CCCC(C(=O)NCc2ccc(C)cc2)C1 (stereo not given)", "N"),
    ("CCOC(=O)C1(C)CCCN(C(=O)c2cccc(Cl)c2)C1 (stereo not given)", "N"),
    ("COc1cccc(C(O)c2nc3ccccc3n2C)c1 (stereo not given)", "N"),
    ("COCCNC(=O)c1ccc(Cn2c(SCC(=O)NCC3CCCO3)nc3ccc(Br)cc3c2=O)cc1 (stereo not given)", "N"),
    ("CCCCCNC(=O)C(c1ccc(OC)cc1)n1c(=O)c(-c2ccccc2)nc2ccccc21 (stereo not given)", "N"),
    ("OC(CNCC1CCCO1)Cn1c2ccc(Br)cc2c2cc(Br)ccc21 (stereo not given)", "Y"),
    ("COc1ccc(CC(=O)NC2CCSc3ccccc32)cc1OC (stereo not given)", "N"),
    ("O=C(NCc1ccccc1Cl)c1csc([C@@H]2O[C@H](CO)[C@@H](O)[C@H]2O)n1", "N"),
    ("CN(C)CCCn1c(=O)n(Cc2ccccc2)c(=O)c2c3c(sc21)CCCCC3", "Y"),
    ("CO[C@@H]1CN(C)C(=O)c2cc(NC(=O)Nc3cc(F)ccc3F)ccc2OC[C@H](C)N(C(=O)c2ccccn2)C[C@@H]1C", "N"),
    ("CCC(C)NC(=O)c1ccc(N2CCC3(CC2)OCCO3)c([N+](=O)[O-])c1 (stereo not given)", "N"),
    ("Cc1ccc(C(O)c2ncc(-c3ccccc3F)[nH]2)cc1F (stereo not given)", "N"),
    ("CCOC(=O)C1(C)CCCN(C(=O)c2ccc(N(C)C)cc2)C1 (stereo not given)", "N"),
    ("CC1(C(=O)Nc2ccccc2Br)CCN1C(=O)CC1CC1 (stereo not given)", "N"),
    ("COc1ccc(S(=O)(=O)NC(=O)C2(C)CCN2C(=O)COc2ccc(Cl)cc2)cc1 (stereo not given)", "N"),
    ("COc1cccc(C(O)c2ncc(-c3ccc4ccccc4c3)[nH]2)c1 (stereo not given)", "N"),
    ("COC(=O)[C@]12CCCCC=C1N(Cc1ccc3c(c1)OCO3)C(=O)[C@H](CC(=O)N1CCOCC1)C2", "N"),
    ("O=c1c2c3c(sc2n(CCN2CCCC2)c(=O)n1Cc1ccccc1)CCCCC3", "N"),
    ("COc1ccc(CN2CCCC(CNC(=O)c3ccc(F)cc3)C2)cc1OC (stereo not given)", "N"),
    ("O=C(Nc1cc(Br)ccc1F)c1nc[nH]c1C(=O)NCc1ccccc1", "N"),
    ("O=[N+]([O-])c1ccc(CN2CC(N3CCC(c4ccccc4)CC3)CS2(=O)=O)cc1 (stereo not given)", "N"),
    ("O=C(Nc1ccc(N2C(=O)c3cccc4cccc(c34)C2=O)cc1)c1ccc(N2CCCCC2)c([N+](=O)[O-])c1", "N"),
    ("CCN(Cc1ccncc1)C(=S)Nc1ccccc1C", "N"),
    ("Cc1nnnn1/C(=C\\c1ccccc1)C(=O)OCC(=O)N1CC2(C)CC1CC(C)(C)C2 (stereo not given)", "Y"),
    ("COc1ccc(C(=O)NC2CC(C)(C)NC(C)(C)C2)cc1OC", "N"),
    ("CN(C)C(=O)COC(=O)c1cccc(S(=O)(=O)N2CC3(C)CC2CC(C)(C)C3)c1 (stereo not given)", "N"),
    ("C(=C\\c1ccccc1)/CSc1nnc(-c2cccnc2)n1Cc1ccco1", "N"),
    ("COc1ccc(CC2c3cc(OC)c(OC)cc3CC[N+]2(C)CCC(=O)OCCCCCOC(=O)CC[N+]2(C)CCc3cc(OC)c(OC)cc3C2Cc2ccc(OC)c(OC)c2)cc1OC (stereo not given)", "Y"),
    ("COc1ccc(OC)c(NC(=O)C2CCCN2S(=O)(=O)c2ccc3c(c2)CC(C)N3C(C)=O)c1 (stereo not given)", "N"),
    ("Cc1ccc(NC(=O)N2CCC(C(=O)NCc3ccc(F)cc3)CC2)cc1", "N"),
]
